assay: Example 6: compartmental pharmacokinetic analysis; type: in vivo; settings: female, human, plasma, oral, 1.3 g; 295 mL/min×0.449; read-out: systemic clearance (CL)
Measured Attribute: clearance (mL/min)
Answers are plain numbers, in mL/min.

Data point: NC[C@H]1CC[C@H](C(=O)O)CC1 [tranexamic acid] ; clearance = 123

---

assay: Published pharmacokinetics of tranexamic acid (Pilbrant et al.; Cyklokapron NDA); type: in vivo; details: human, serum; single 1.3 g oral dose, fasting, approx. 65% of 2 g dose published data; read-out: expected mean Cmax
Measured Attribute: Cmax

Data point: NC[C@H]1CC[C@H](C(=O)O)CC1 [tranexamic acid] ; Cmax = ~10000 ng/mL

---

assay: Published pharmacokinetics of tranexamic acid (Pilbrant et al.; Cyklokapron NDA); assay type: in vivo; details: human, serum; single 1.3 g oral dose, fasting, approx. 65% of 2 g dose published data; read-out: expected mean AUC0-6
Measured Attribute: AUC(0-t)

Data point: NC[C@H]1CC[C@H](C(=O)O)CC1 ; AUC(0-t) = ~40000 ng·h/mL
